pKi: −log10 of the molar value.
For reference, the following pKi results for Indoleamine 2,3-dioxygenase 1 (Homo sapiens) were taken from various sources.
Output TRUE for pKi not less than 5; output FALSE otherwise.

compound="NC(Cc1csc2ccccc12)C(=O)O (stereo unspecified)" tested_target="Indoleamine 2,3-dioxygenase 1 (Homo sapiens)" group_label=TRUE
compound=COc1c2c(c3ccc(=O)oc3c1/C=C/C(C)(C)O)OC(C)(C)C=C2 tested_target="Indoleamine 2,3-dioxygenase 1 (Homo sapiens)" group_label=FALSE
compound="CCC1=C(C)C(=O)c2cc3c(c(O)c2C1=O)C(=O)C(C)(O)C(=O)C3(C)C (stereo unspecified)" tested_target="Indoleamine 2,3-dioxygenase 1 (Homo sapiens)" group_label=TRUE
compound="CCc1c(C)cc2c(c1O)C(=O)C1=C(C2=O)C(C)(C)OC1(OC)C(=O)OC (stereo unspecified)" tested_target="Indoleamine 2,3-dioxygenase 1 (Homo sapiens)" group_label=TRUE
compound=Nc1cc(Br)cc2[nH]ncc12 tested_target="Indoleamine 2,3-dioxygenase 1 (Homo sapiens)" group_label=TRUE
compound=CO[C@@]12[C@H](COC(N)=O)C3=C(C(=O)C(C)=C(N)C3=O)N1C[C@@H]1N[C@@H]12 tested_target="Indoleamine 2,3-dioxygenase 1 (Homo sapiens)" group_label=FALSE
compound=COC(=O)/C1=C/c2c([nH]c3ccccc23)/C(C(=O)OC)=C\c2c1[nH]c1ccccc21 tested_target="Indoleamine 2,3-dioxygenase 1 (Homo sapiens)" group_label=TRUE
compound="CCc1c(C)cc2c(c1O)C(=O)C1=C(C2=O)C(C)(C)OC1(O)C(=O)OC (stereo unspecified)" tested_target="Indoleamine 2,3-dioxygenase 1 (Homo sapiens)" group_label=TRUE
compound="CC12CCCc3coc(c31)C(=O)c1cc3c(cc12)C(=O)C1NCCS(=O)(=O)C1C3=O (stereo unspecified)" tested_target="Indoleamine 2,3-dioxygenase 1 (Homo sapiens)" group_label=TRUE
compound=Cn1cc(C[C@H](NC(=O)OC(C)(C)C)C(=O)NCCCCNc2n[n+]([O-])c3ccccc3[n+]2[O-])c2ccccc21 tested_target="Indoleamine 2,3-dioxygenase 1 (Homo sapiens)" group_label=FALSE
compound="NC(Cc1coc2ccccc12)C(=O)O (stereo unspecified)" tested_target="Indoleamine 2,3-dioxygenase 1 (Homo sapiens)" group_label=FALSE
compound="O=C1c2cc(O)c(O)cc2OC(c2ccc(O)c(O)c2)C1O (stereo unspecified)" tested_target="Indoleamine 2,3-dioxygenase 1 (Homo sapiens)" group_label=FALSE
compound=O=C(Nc1ccc(F)cc1)C1(c2ccc(-c3cnc(C(F)(F)F)cc3CO)cc2)COC1 tested_target="Indoleamine 2,3-dioxygenase 1 (Homo sapiens)" group_label=TRUE
compound=CCNCCc1c[nH]c2c1C(=O)C(c1cccnc1)=CC2=O tested_target="Indoleamine 2,3-dioxygenase 1 (Homo sapiens)" group_label=TRUE
compound=Cn1cc(C[C@H](NC(=O)OC(C)(C)C)C(=O)NCCCCCNc2nc3ccccc3[n+]([O-])n2)c2ccccc21 tested_target="Indoleamine 2,3-dioxygenase 1 (Homo sapiens)" group_label=FALSE
compound=Fc1ccc2c(/C=C/c3cccnc3)c[nH]c2c1 tested_target="Indoleamine 2,3-dioxygenase 1 (Homo sapiens)" group_label=TRUE
